Consider the following compounds and their measured TGI readings.
Tested on: NCI-H23 lung
Assay: NCI tumour cell line growth inhibition, 48 h

These solved cases illustrate the format of a correct answer.
# COMPOUND, RESULT
measured = [
    ("S=C1NC2=C(COC/C2=C\\c2ccccc2Cl)C(c2ccccc2Cl)N1 (stereo not drawn)", "> 100 µM"),
    ("CC1(C)N=C(/C(C#N)=[N+](/[O-])C(=O)c2ccccc2)C(C)(C)N1O", "> 100 µM"),
]

// below: TGI requested for another compound
TGI value, target or system NCI-H23 lung, for COc1ccc2nc(C3=CN(C4OC(CO)C(O)C(O)C4O)C4C=CC=CC34)sc2c1 (stereo not drawn) : > 100 µM

Each recorded value in this set is attributed to PubChem BioAssay (NCI).
